assay: PK study: plasma pharmacokinetics after oral administration of CA extract in normal and FD rats (UPLC-MS/MS); type: in vivo; settings: Sprague-Dawley, rat, FD group rats, oral CA extract (0.10 g/mL solution, 10 mL/kg), n = 6, read-out: Vz/F
For each entry below, report its Vd/F value.
State just the number; it will be interpreted in L/kg.

Data point: COc1cc(C(=O)O)cc(OC)c1O [Syringic acid] ; Vd/F = 5.49

Data point: CC(=O)C1(O)CCC2(O)C3(O)CC=C4CC(O)CCC4(C)C3CC(O)C12C (stereo not drawn) [Deacylmetaplexigenin] ; Vd/F = 18.1

Data point: CC(=O)c1ccc(O)c(C(=O)c2c(O)ccc(O)c2C)c1O [Baishouwu benzophenone] ; Vd/F = 7.08

----------
experiment: PK study: plasma pharmacokinetics after oral administration of CA extract in normal and FD rats (UPLC-MS/MS); type: in vivo; conditions: Sprague-Dawley, rat, FD group rats, oral CA extract (0.10 g/mL solution, 10 mL/kg), n = 6
metric.name: half-life (h)
State just the number; it will be interpreted in h.

Data point: CC(=O)C1(O)CCC2(O)C3(O)CC=C4CC(O)CCC4(C)C3CC(O)C12C (stereo not drawn) ; half-life = 12.9

Data point: "CC(=O)c1ccc(O)c(C(=O)c2c(O)ccc(O)c2C)c1O" ; half-life = 11

Data point: "COc1cc(C(=O)O)cc(OC)c1O" ; half-life = 37.7

----------
experiment: PK study: plasma pharmacokinetics after oral administration of CA extract in normal and FD rats (UPLC-MS/MS); format: in vivo; details: Sprague-Dawley, rat, 1 g/kg, oral CA extract, normal and FD rats, read-out: time of peak concentration (Tmax)
metric.name: Tmax

Data point: CC(=O)C1(O)CCC2(O)C3(O)CC=C4CC(O)CCC4(C)C3CC(O)C12C (stereo not shown) ; Tmax = 20 to 30 min

----------
For each entry below, report its half-life value.
assay: PK study: plasma pharmacokinetics after oral administration of CA extract in normal and FD rats (UPLC-MS/MS); format: in vivo; settings: Sprague-Dawley, rat, Normal group rats, oral CA extract (0.10 g/mL solution, 10 mL/kg), n = 6
State just the number; it will be interpreted in h.

Data point: "CC(=O)c1ccc(O)c(C(=O)c2c(O)ccc(O)c2C)c1O" ; half-life = 9.14

Data point: CC(=O)C1(O)CCC2(O)C3(O)CC=C4CC(O)CCC4(C)C3CC(O)C12C (stereo not drawn) ; half-life = 10

Data point: "COc1cc(C(=O)O)cc(OC)c1O" ; half-life = 34.5

----------
assay: PK study: plasma pharmacokinetics after oral administration of CA extract in normal and FD rats (UPLC-MS/MS); type: in vivo; conditions: Sprague-Dawley, rat, Normal group rats, oral CA extract (0.10 g/mL solution, 10 mL/kg), n = 6, read-out: Tmax
metric.name: Tmax (min)
State just the number; it will be interpreted in min.

Data point: CC(=O)C1(O)CCC2(O)C3(O)CC=C4CC(O)CCC4(C)C3CC(O)C12C (stereo not drawn) ; Tmax = 25.2

Data point: "COc1cc(C(=O)O)cc(OC)c1O" ; Tmax = 14.4

Data point: "CC(=O)c1ccc(O)c(C(=O)c2c(O)ccc(O)c2C)c1O" ; Tmax = 15.6

----------
assay: PK study: plasma pharmacokinetics after oral administration of CA extract in normal and FD rats (UPLC-MS/MS); type: in vivo; details: Sprague-Dawley, rat, FD group rats, oral CA extract (0.10 g/mL solution, 10 mL/kg), n = 6
metric.name: AUC(0-t) (ng·h/mL)
State just the number; it will be interpreted in ng·h/mL.

Data point: COc1cc(C(=O)O)cc(OC)c1O [Syringic acid] ; AUC(0-t) = 498

Data point: CC(=O)c1ccc(O)c(C(=O)c2c(O)ccc(O)c2C)c1O [Baishouwu benzophenone] ; AUC(0-t) = 9820

Data point: CC(=O)C1(O)CCC2(O)C3(O)CC=C4CC(O)CCC4(C)C3CC(O)C12C (stereo not drawn) [Deacylmetaplexigenin] ; AUC(0-t) = 13300

----------
Test: PK study: plasma pharmacokinetics after oral administration of CA extract in normal and FD rats (UPLC-MS/MS)
Type: in vivo
Settings: Sprague-Dawley, rat, FD group rats, oral CA extract (0.10 g/mL solution, 10 mL/kg), n = 6, read-out: Tmax
Description: For PK experiments, an appropriate amount of the CA extract was weighed to prepare a 0.10 g/mL solution using physiological saline. Briefly, 12 SD rats were randomly assigned to normal and FD groups and were orally administered the prepared CA sample (10 mL/kg body weight). […] The PK parameters were analyzed using the non–compartment analysis using the WinNonLin 8.2 software (Phoenix, United States). All the data were expressed as mean ± standard deviation (SD). […]
metric.name: Tmax
For clarity, give the value followed by its unit.

Data point: CC(=O)C1(O)CCC2(O)C3(O)CC=C4CC(O)CCC4(C)C3CC(O)C12C (stereo not drawn) ; Tmax = 19.8 min

Data point: "COc1cc(C(=O)O)cc(OC)c1O" ; Tmax = 15 min

Data point: "CC(=O)c1ccc(O)c(C(=O)c2c(O)ccc(O)c2C)c1O" ; Tmax = 18.6 min

----------
test: PK study: plasma pharmacokinetics after oral administration of CA extract in normal and FD rats (UPLC-MS/MS); type: in vivo; details: Sprague-Dawley, rat, FD group rats, oral CA extract (0.10 g/mL solution, 10 mL/kg), n = 6
For each entry below, report its AUC(0-inf) value.
State just the number; it will be interpreted in ng·h/mL.

Data point: "CC(=O)c1ccc(O)c(C(=O)c2c(O)ccc(O)c2C)c1O" ; AUC(0-inf) = 11100

Data point: CC(=O)C1(O)CCC2(O)C3(O)CC=C4CC(O)CCC4(C)C3CC(O)C12C (stereo not drawn) ; AUC(0-inf) = 13900

Data point: "COc1cc(C(=O)O)cc(OC)c1O" ; AUC(0-inf) = 1170

----------
Assay: PK study: plasma pharmacokinetics after oral administration of CA extract in normal and FD rats (UPLC-MS/MS)
Format: in vivo
Details: Sprague-Dawley, rat, Normal group rats, oral CA extract (0.10 g/mL solution, 10 mL/kg), n = 6
Description: For PK experiments, an appropriate amount of the CA extract was weighed to prepare a 0.10 g/mL solution using physiological saline. Briefly, 12 SD rats were randomly assigned to normal and FD groups and were orally administered the prepared CA sample (10 mL/kg body weight). […] The PK parameters were analyzed using the non–compartment analysis using the WinNonLin 8.2 software (Phoenix, United States). All the data were expressed as mean ± standard deviation (SD). […]
For each entry below, report its Cmax value.
State just the number; it will be interpreted in ng/mL.

Data point: CC(=O)C1(O)CCC2(O)C3(O)CC=C4CC(O)CCC4(C)C3CC(O)C12C (stereo not drawn) [Deacylmetaplexigenin] ; Cmax = 4680

Data point: COc1cc(C(=O)O)cc(OC)c1O [Syringic acid] ; Cmax = 72.2

Data point: CC(=O)c1ccc(O)c(C(=O)c2c(O)ccc(O)c2C)c1O [Baishouwu benzophenone] ; Cmax = 6000
